MEASUREMENT PROTOCOL: in vivo
Assay type: in vivo, female Wistar rats
CONDITION DESCRIPTION: in vivo; ratio of LD50 iv. to ED73 iv., rat; read-out: Q2 (LD50 iv. /ED73 iv.), therapeutic breadth
Procedure: ED73 iv. and po. are the dose in mg/kg, body weight which inhibits aconitine in female Wistar rats after iv. or po. administration of the test substance up to the occurrence of isolated ventricular extrasystolae. The procedure is also described by K. Femmer et al., in Pharmazie, vol. 31, page 36 (1976). […] The data is analyzed by the Probit regression analysis with a confidence interval of p=0.05 (values in parentheses). […]
selectivity ratio: recorded values
EXPERIMENTAL READOUT: selectivity ratio

>>> observed("CNC(C)C(=O)N1c2ccccc2CCc2ccc(NC(=O)OC(C)C)cc21 (stereo not drawn)")
38
>>> observed("CCOC(=O)Nc1ccc2c(c1)N(C(=O)C(C)NC)c1ccccc1C=C2 (stereo not drawn)")
19
>>> observed("CCOC(=O)Nc1ccc2c(c1)N(C(=O)CCN1CCOCC1)c1ccccc1S2 [Moracizin, reference compound]")
10
>>> observed("CCNC(C)C(=O)N1c2ccccc2CCc2ccc(NC(=O)OC(C)C)cc21 (stereo not drawn)")
30
>>> observed("CNC(C)C(=O)N1c2ccccc2CCc2ccc(NC(=O)OC)cc21 (stereo not drawn)")
28
>>> observed("COC(=O)Nc1ccc2c(c1)N(C(=O)C(C)NCCO)c1ccccc1CC2 (stereo not drawn)")
14
>>> observed("CCOC(=O)Nc1ccc2c(c1)N(C(=O)C(C)N(C)C)c1ccccc1CC2 (stereo not drawn)")
8
>>> observed("CCOC(=O)Nc1ccc2c(c1)N(C(=O)C(C)N(CC)CC)c1ccccc1CC2 (stereo not drawn)")
9
